Some molecules, each annotated with its measured IC50.
- target: human catalytic domain HDAC4 protein (amino acids 648-1032) (Homo sapiens (Human), UniProt P56524)
- Sequence (P56524 648-1032): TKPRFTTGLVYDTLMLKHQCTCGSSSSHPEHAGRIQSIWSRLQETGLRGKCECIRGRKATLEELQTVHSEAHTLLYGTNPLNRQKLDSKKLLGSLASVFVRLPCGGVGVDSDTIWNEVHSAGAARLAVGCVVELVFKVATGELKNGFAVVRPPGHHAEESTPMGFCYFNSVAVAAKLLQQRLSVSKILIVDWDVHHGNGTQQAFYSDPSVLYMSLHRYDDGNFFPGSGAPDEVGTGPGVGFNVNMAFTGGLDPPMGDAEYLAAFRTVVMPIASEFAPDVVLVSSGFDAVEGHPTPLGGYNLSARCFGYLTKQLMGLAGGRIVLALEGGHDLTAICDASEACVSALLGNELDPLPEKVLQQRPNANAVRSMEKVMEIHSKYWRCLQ
Supply the numeric figure in nM, leaving out any unit text.

Cc1c(F)cccc1C1(C(=O)NO)CC=C(c2cncc(F)c2)CC1 (stereo not shown) : 490
Cc1c(F)cccc1[C@@]1(C(=O)NO)C=C(c2ccc3cnn(C)c3c2)CC1 : 10
Cc1c(F)cccc1[C@@]1(C(=O)NO)C=C(c2ccc3cnn(C(F)F)c3c2)CC1 : 30
Cc1c(F)cccc1[C@@]1(C(=O)NO)C=C(c2ccc3onc(C)c3c2)CC1 : 30

[Q] Name the recorded IC50 for Cc1c(F)cccc1[C@@]1(C(=O)NO)C=C(c2cc3ccccc3s2)CC1 .
[A] 20

[Q] Name the recorded IC50 for Cc1c(F)cccc1[C@@]1(C(=O)NO)C=C(c2cnn(C(F)F)c2)CC1 .
[A] 20

[Q] Name the recorded IC50 for O=C(NO)[C@@]1(c2ccccc2)C=C(c2ccccc2)CC1 .
[A] 31000

* * *

- target: human catalytic domain HDAC4 protein (amino acids 648-1032) (Homo sapiens (Human), UniProt P56524)
Mark Satisfied for IC50 under 0.04 µM, Not satisfied if at or over.

These solved cases illustrate the format of a correct answer.
Cc1c(F)cccc1[C@@]1(C(=O)NO)C=C(c2cncc(Cl)c2)CC1 : Satisfied
Cc1ncc(C2=C[C@@](C(=O)NO)(c3cccc(F)c3C)CC2)cn1 : Not satisfied
Cc1c(F)cccc1[C@@]1(C(=O)NO)C=C(c2ccn3ccnc3c2)CC1 : Satisfied
Cc1ccc(C2=C[C@](C(=O)NO)(c3cccc(F)c3C)CC2)cn1 : Satisfied
O=C(NO)C1(c2ccccc2)CC=CC1 : Not satisfied
Cc1ccccc1C1=C[C@](C(=O)NO)(c2cccc(F)c2C)CC1 : Satisfied

Could you now consider this next molecule?
[Q] Item Cc1c(F)cccc1[C@@]1(C(=O)NO)C=C(c2ccc3nccnc3c2)CC1 : IC50 beneath 0.04 µM, strictly?
[A] Satisfied

* * *

- target: human catalytic domain HDAC4 protein (amino acids 648-1032) (Homo sapiens (Human))
Some compounds, each annotated with its measured log10 IC50.
// do not treat as linear: log10 of IC50, unit µM

Cc1c(F)cccc1C1(C(=O)NO)CC=C(c2ccc3nccnc3c2)CC1 (centres unmarked) : -0.26
Cc1c(F)cccc1[C@@]1(C(=O)NO)C=C(c2cc(F)cnc2C2CC2)CC1 : -1.40
Cc1c(F)cccc1[C@@]1(C(=O)NO)C=C(c2cccc3cnsc23)CC1 : -1.52
Cc1c(F)cccc1[C@@]1(C(=O)NO)C=C(c2ccnc(C(F)(F)F)c2)CC1 : -1.40
Cc1c(F)cccc1[C@@]1(C(=O)NO)C=C(c2ccc(C(F)(F)F)nc2)CC1 : -1.70

[Q] Given the entry Cc1ccccc1C1=C[C@@](C(=O)NO)(c2cccc(F)c2C)CC1 , what log10 IC50 was observed with human catalytic domain HDAC4 protein (amino acids 648-1032) (Homo sapiens (Human))?
[A] -0.64

[Q] Given the entry Cc1c(F)cccc1[C@@]1(C(=O)NO)C=C(c2ccnn2C)CC1 , what log10 IC50 was observed with human catalytic domain HDAC4 protein (amino acids 648-1032) (Homo sapiens (Human))?
[A] -1.70

[Q] Given the entry Cc1c(F)cccc1[C@]1(C(=O)NO)C=C(c2cncc(F)c2)CC1 , what log10 IC50 was observed with human catalytic domain HDAC4 protein (amino acids 648-1032) (Homo sapiens (Human))?
[A] -0.17

[Q] Given the entry Cc1ncc(Cl)cc1C1=C[C@](C(=O)NO)(c2cccc(F)c2C)CC1 , what log10 IC50 was observed with human catalytic domain HDAC4 protein (amino acids 648-1032) (Homo sapiens (Human))?
[A] -1.70

[Q] Given the entry COc1ncc(C2=C[C@](C(=O)NO)(c3cccc(F)c3C)CC2)cc1F , what log10 IC50 was observed with human catalytic domain HDAC4 protein (amino acids 648-1032) (Homo sapiens (Human))?
[A] -1.40
